PROTOCOL SUMMARY: NCI Yeast Anticancer Drug Screen. Data for the mec2-1 strain (AID 157)
TEST CONDITIONS: S. cerevisiae mec2-1 strain, at 50.0 µM (retest, dose inferred, filed as 5.0)
The panel holds about 79,000 compounds, 15% with a hit somewhere; the sample as a whole holds those more often. Active and inactive are the calls of the source. No stated cut-off is given here; in the data, active means growth inhibition above about 70%; inactive means the rest.
Labels: true (1) = active, false (0) = inactive

- CC(/C=C/NNC1=NC(c2ccccc2)C(c2ccccc2)=NN1)Sc1ccccc1N (stereo not drawn): false (0)
- Cc1nc(C)c(C(=O)NNC(=O)C[N+](C)(C)C)cc1C(=O)NNC(=O)C[N+](C)(C)C: false (0)
- Cc1ccc(N2C(=O)CSC2=S)cc1Br: false (0)
- Cc1nn(C(=O)c2ccccc2O)c2c1C(c1ccc(O)cc1O)SC(N)=N2 (stereo not drawn): false (0)
- CC(C)CCSc1ncnc2nc[nH]c12: false (0)
- NCc1ccccc1-c1c2nc(c(-c3ccccc3CN)c3ccc([nH]3)c(-c3ccccc3CN)c3nc(c(-c4ccccc4CN)c4ccc1[nH]4)C=C3)C=C2: true (1)
- C/C(=N\N=C(N)N)c1ccc2c(c1)Cc1cc(/C(C)=N/N=C(N)N)ccc1-2: true (1)
- Nc1[nH]cnc(=S)c1NC=O: false (0)
- Cc1ccc(S(=O)(=O)NCCSCCSCCNS(=O)(=O)c2ccc(C)cc2)cc1: false (0)
- CCCN(CCC)Cc1cc2c(cc1O)CC[C@@H]1[C@@H]2CC[C@]2(C)C(=O)CC[C@@H]12: true (1)
- CC(C)(C)N=C=NC(c1ccccc1)(c1ccccc1)c1ccccc1: false (0)
- CC1=NOC(=O)/C1=C/c1ccc(Cl)c(Cl)c1: false (0)
- Cc1ccc(S(=O)(=O)NNC(C[N+](=O)[O-])c2ccccc2)cc1 (stereo not drawn): true (1)
- NC(c1ccccc1)P(=O)(OCc1ccc([N+](=O)[O-])cc1)OCc1ccc([N+](=O)[O-])cc1 (stereo not drawn): false (0)
- Nc1ccc(SC23CC4CC(CC(C4)C2)C3)cc1: false (0)
- COc1ccc(CN2C(=O)C(Cl)=C(Cl)C2=O)c(OC)c1: false (0)
- CN(C)CC1(C)CC/C(=C\c2ccc(Cl)cc2)C1=O (stereo not drawn): false (0)
- CSc1nc(N)c2cnn(C3OC(CO)C(O)C3O)c2n1 (stereo not drawn): false (0)

====

PROTOCOL SUMMARY: NCI Yeast Anticancer Drug Screen. Data for the bub3 strain (AID 167)
TEST CONDITIONS: S. cerevisiae bub3 mutant strain, at 5.0 µM (retest, dose inferred, filed as 0.5), hits give high values
The panel holds about 79,000 compounds, 15% with a hit somewhere; the sample as a whole holds those more often.
Returns one of Satisfied or Not satisfied; Satisfied when growth inhibition is >= 20%.

* O=C1c2ccccc2Cc2cc(O)ccc21 | Not satisfied
* CC(C)CCOc1ccc(/C=C\C(=O)O)cc1 | Not satisfied
* Nc1c(C(=O)Nc2ccccc2)[n+]([O-])c2ccccc2[n+]1[O-] | Not satisfied
* COc1ccc(/C=N/Nc2cc(C)nc3cc4c(cc23)OCO4)c2ccccc12 | Not satisfied
* c1ccc2c(c1)Nc1ccc3ccccc3c1S2 | Satisfied
* CC(C)CN(CC(C)C)CN1C(=O)/C(=C/c2ccc([N+](=O)[O-])cc2)SC1=S | Not satisfied
* NC(N)=N/N=C(\c1ccc(F)cc1)c1ccc(C(F)(F)F)cc1 | Not satisfied
* CN(CCC(=O)/C(=C\c1ccc(Cl)cc1)c1ccccc1)Cc1ccccc1 | Satisfied
* COC(=S)S | Not satisfied
* [O-][N+]1=C2CCC/C(=N/O)C2(O)C2CCCCC21N1CCOCC1 (stereo unspecified) | Satisfied
* Clc1ccc2nc(Cl)c(Cl)nc2c1 | Not satisfied
* Cn1cnc([N+](=O)[O-])c1Sc1nc2ccccc2s1 | Satisfied
* CCC(=O)Oc1c(Cl)cc(Cl)c(Cl)c1Cl | Not satisfied
* CCCCCCC(/C=C/c1ccccc1)=N\O | Not satisfied
* CNC(=O)c1cc(NC(=O)c2ccc(C(=O)Nc3cc(C(=O)NC)cc(C4=NCCN4)c3)cc2)cc(C2=NCCN2)c1 | Not satisfied
* CCc1ccc(C(=O)O)c2ccccc12 | Not satisfied
* CC1=C(C(=O)NCc2ccccc2)C(c2ccccc2[N+](=O)[O-])C(C(=O)NCc2ccccc2)=C(C)N1 | Not satisfied
* Cc1cc([N+](=O)[O-])c2nnnn2c1 | Not satisfied
* Cc1ccc(-c2c(C#N)c(-c3ccc(Cl)cc3)c(C#N)c(=O)n2NS(=O)(=O)c2ccccc2)cc1 | Satisfied
* CN(C)N=Nc1ccc(NC(N)=O)cc1 | Satisfied
* O=C(OC1=C(Br)C(=O)c2ccccc2C1=O)c1ccccc1 | Not satisfied
* CCCCCCCCCCCC(=O)NCCc1ccc(O)c(O)c1 | Not satisfied
* O=C1NC(=O)C(Cc2ccccc2)(Cc2ccccc2)S1 | Not satisfied
* CC(C)CCCC(O)CNCc1ccccc1 (stereo unspecified) | Not satisfied
* O=P1(N2CCCCC2)N(Cc2ccc(Cl)cc2)CCCN1Cc1ccc(Cl)cc1 | Satisfied
* CCCCCCc1ccc(O)cc1O | Not satisfied
* Cc1ccccc1NCc1ccccc1Cl | Not satisfied
* CC1(CO)CCCC2(C)C1CCC1CC3C=CC12C1C(=O)OC(=O)C31 (stereo unspecified) | Satisfied
* c1c[n+](CCC2CCCCC2)ccn1 | Not satisfied
* O=C(O)c1ccccc1C1c2ccccc2Oc2ccccc21 | Not satisfied
* O=CC(O)C(O)C(O)C(O)C(=O)NCCCCCCCCCCCCNC(=O)C(O)C(O)C(O)C(O)C=O (stereo unspecified) | Not satisfied
* O=c1cc(N=Nc2ccc(Cl)c(Cl)c2)[nH]c(=O)[nH]1 | Satisfied
* Nc1ccc(C(=O)Oc2cccccc2=O)cc1 | Not satisfied
* Cn1cc(CCC(=O)C2C=CC=CC2=NC(=O)CCCl)c2ccccc21 (stereo unspecified) | Not satisfied
* CCC[CH2][Ge]([CH2]CCC)([CH2]CCC)[O]C(=O)CC(=O)c1ccccc1 | Not satisfied
* CCCCCCCCCCCCO | Not satisfied
* c1ccc2c(c1)-c1cccc3cncc-2c13 | Satisfied
* CC1(C)N=C(N)N=C(N)N1c1cccc(OCc2cccc(N)c2)c1 | Not satisfied
* CC(Cl)C(=O)Nc1cc2ccccc2oc1=O (stereo unspecified) | Not satisfied
* C[C@]12CC[C@H]3[C@@H](CCC4=CC(=O)CC[C@@]43C)[C@@H]1CC[C@@H]2C(=O)C=O | Not satisfied
